Could you please report measured Kp at 5 min for the items listed next?
Test Summary: Ratio of drug level in brain to plasma in Mdr1(a/b) knock out and P-gp competent FVB mouse at 1 mg/kg, iv at 5 mins
Assay type: ADME, organism-based
Set-up: dose 1 mg/kg, route intravenous
Stated Conditions: read-out: BPR
Give bare numbers.

Consider the worked cases shown below.
* CS(=O)(=O)c1ccc(-c2ccc3c(NC4CCC4)c(C(N)=O)nnc3c2)cc1 | 0.76
* CC(C)Nc1c(C(N)=O)nnc2cc(N3CCOCC3)ccc12 | 11.4

Consider the additional compound presented here.
Dear colleague, I am looking for the recorded Kp at 5 min of the following compound: `C[C@@H](Nc1c(C(N)=O)nnc2cc(-c3ccncc3)ccc12)C1CC1` 1.5

###

Tgt: Aurora kinase A (Homo sapiens)
Test Summary: Inhibition of Aurora A (unknown origin) at 10 uM relative to control
Rule: inhibition of 70% or more gives YES; anything lower gives NO.

Some solved cases for reference:
• CC(C)Nc1c(C(N)=O)nnc2ccc(-c3ccncc3)cc12 = YES
• CC(C)Nc1c(C(N)=O)nnc2cc(-c3ccncc3)ccc12 = YES
• CC(C)Nc1c(C(N)=O)nnc2ccc(-c3cn[nH]c3)cc12 = YES
• CS(=O)(=O)c1ccc(-c2ccc3c(NC4CCC4)c(C(N)=O)nnc3c2)cc1 = NO
• CC(C)Nc1c(C(N)=O)cnc2cc(-c3ccc(S(C)(=O)=O)cc3)ccc12 = NO

Consider now this further molecule.
Threshold query (inhibition >= 70%) on `CC(C)Nc1c(C(N)=O)nnc2cc(N3CCOCC3)ccc12` YES

###

Tgt: Macrophage colony-stimulating factor 1 receptor (Homo sapiens)
Test Summary: Inhibition of CSF1R (unknown origin) at 10 uM relative to control
Kindly supply the reported inhibition values for the records listed here.
Numbers only, in %.

The following compounds have reported results that may help.
* CS(=O)(=O)c1ccc(-c2ccc3c(NC4CCC4)c(C(N)=O)nnc3c2)cc1 | 100
* CC(C)Nc1c(C(N)=O)nnc2cc(N3CCOCC3)ccc12 | 97
* CC(C)Nc1c(C(N)=O)nnc2ccc(-c3ccncc3)cc12 | 90
* C[C@@H](Nc1c(C(N)=O)nnc2cc(-c3ccc(S(C)(=O)=O)cc3)ccc12)C1CC1 | 100
* CC(C)Nc1c(C(N)=O)nnc2ccc(-c3cn[nH]c3)cc12 | 96

Which inhibition is listed for `CC(C)Nc1c(C(N)=O)cnc2cc(-c3ccc(S(C)(=O)=O)cc3)ccc12` ? 98

###

Tgt: Receptor tyrosine-protein kinase erbB-4 (Homo sapiens) (UniProt Q15303)
Sequence (Q15303 whole entry): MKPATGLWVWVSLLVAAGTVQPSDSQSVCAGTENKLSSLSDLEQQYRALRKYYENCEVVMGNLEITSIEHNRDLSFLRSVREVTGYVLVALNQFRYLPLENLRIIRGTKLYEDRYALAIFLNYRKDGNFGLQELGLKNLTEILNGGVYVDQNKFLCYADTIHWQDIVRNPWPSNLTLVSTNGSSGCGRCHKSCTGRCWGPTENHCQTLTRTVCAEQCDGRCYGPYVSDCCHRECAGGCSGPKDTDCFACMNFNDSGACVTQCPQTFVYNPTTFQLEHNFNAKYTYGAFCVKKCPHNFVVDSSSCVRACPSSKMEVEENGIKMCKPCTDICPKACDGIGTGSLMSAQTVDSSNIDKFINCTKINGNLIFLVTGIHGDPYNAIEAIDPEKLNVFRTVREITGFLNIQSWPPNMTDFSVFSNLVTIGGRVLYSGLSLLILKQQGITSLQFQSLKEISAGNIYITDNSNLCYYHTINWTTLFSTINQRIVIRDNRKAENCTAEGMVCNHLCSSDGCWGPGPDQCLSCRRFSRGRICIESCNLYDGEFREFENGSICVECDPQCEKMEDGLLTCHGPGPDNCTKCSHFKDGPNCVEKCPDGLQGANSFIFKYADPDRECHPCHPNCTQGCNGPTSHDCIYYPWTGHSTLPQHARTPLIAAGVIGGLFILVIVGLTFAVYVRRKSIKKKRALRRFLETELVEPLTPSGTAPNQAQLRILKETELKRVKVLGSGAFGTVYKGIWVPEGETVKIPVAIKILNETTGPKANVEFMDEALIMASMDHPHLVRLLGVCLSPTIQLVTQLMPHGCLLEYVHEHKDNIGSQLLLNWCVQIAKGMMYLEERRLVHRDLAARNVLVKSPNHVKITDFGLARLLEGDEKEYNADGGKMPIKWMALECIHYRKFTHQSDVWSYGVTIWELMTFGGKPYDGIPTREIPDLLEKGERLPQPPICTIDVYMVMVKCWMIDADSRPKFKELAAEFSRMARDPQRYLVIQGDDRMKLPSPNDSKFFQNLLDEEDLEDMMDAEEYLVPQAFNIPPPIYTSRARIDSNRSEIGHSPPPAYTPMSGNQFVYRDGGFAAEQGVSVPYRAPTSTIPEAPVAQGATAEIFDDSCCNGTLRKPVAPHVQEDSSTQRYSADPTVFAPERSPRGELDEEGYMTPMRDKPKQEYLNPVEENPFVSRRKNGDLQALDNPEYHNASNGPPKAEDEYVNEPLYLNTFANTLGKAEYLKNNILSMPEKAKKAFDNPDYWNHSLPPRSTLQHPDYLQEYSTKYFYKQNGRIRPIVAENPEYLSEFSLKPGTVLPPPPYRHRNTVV
Test Summary: Inhibition of ERBB4 (unknown origin) at 10 uM relative to control
Consider the following compounds; for each one, report its inhibition.
One number for each entry, in %.

• CC(C)Nc1c(C(N)=O)cnc2cc(-c3ccc(S(C)(=O)=O)cc3)ccc12 = 11
• CC(C)Nc1c(C(N)=O)nnc2ccc(-c3ccncc3)cc12 = 21
• C[C@@H](Nc1c(C(N)=O)nnc2cc(-c3ccc(S(C)(=O)=O)cc3)ccc12)C1CC1 = 12
• CS(=O)(=O)c1ccc(-c2ccc3c(NC4CCC4)c(C(N)=O)nnc3c2)cc1 = 4
• CC(C)Nc1c(C(N)=O)nnc2ccc(-c3cn[nH]c3)cc12 = 38
• CC(C)Nc1c(C(N)=O)nnc2cc(-c3ccncc3)ccc12 = 22

// next entry
Name the reported inhibition value associated with the compound `CC(C)Nc1c(C(N)=O)nnc2cc(N3CCOCC3)ccc12` 15

###

Tgt: PI3-kinase p110-alpha/p85-alpha (Homo sapiens) (UniProt P27986+P42336)
Test Summary: Inhibition of PIK3CA/PIK3R1 (unknown origin) at 10 uM relative to control
Type: protein-complex assay
Tag: T if measured inhibition is not below 70%, F if it is.

Worked examples, 5 molecules total:
* C[C@@H](Nc1c(C(N)=O)nnc2cc(-c3ccc(S(C)(=O)=O)cc3)ccc12)C1CC1 | F
* CC(C)Nc1c(C(N)=O)nnc2ccc(-c3cn[nH]c3)cc12 | T
* CC(C)Nc1c(C(N)=O)cnc2cc(-c3ccc(S(C)(=O)=O)cc3)ccc12 | F
* CS(=O)(=O)c1ccc(-c2ccc3c(NC4CCC4)c(C(N)=O)nnc3c2)cc1 | F
* CC(C)Nc1c(C(N)=O)nnc2ccc(-c3ccncc3)cc12 | T

# ---- query molecule ----
Please check the record `CC(C)Nc1c(C(N)=O)nnc2cc(N3CCOCC3)ccc12` and state if its inhibition is at or above 70%. F

###

Tgt: Receptor-interacting serine/threonine-protein kinase 2 (Homo sapiens) (UniProt O43353)
Test Summary: Inhibition of RIPK2 (unknown origin) at 10 uM relative to control
Outcome label depends on inhibition relative to 50%: at/above gives TRUE, below gives FALSE.

Worked examples, 4 molecules total:
• CC(C)Nc1c(C(N)=O)nnc2ccc(-c3cn[nH]c3)cc12 = TRUE
• CC(C)Nc1c(C(N)=O)nnc2ccc(-c3ccncc3)cc12 = TRUE
• CS(=O)(=O)c1ccc(-c2ccc3c(NC4CCC4)c(C(N)=O)nnc3c2)cc1 = FALSE
• CC(C)Nc1c(C(N)=O)nnc2cc(N3CCOCC3)ccc12 = FALSE

Reported inhibition at or above 50%? `CC(C)Nc1c(C(N)=O)nnc2cc(-c3ccncc3)ccc12` TRUE

For this molecule, is measured inhibition 50% or higher? `CC(C)Nc1c(C(N)=O)cnc2cc(-c3ccc(S(C)(=O)=O)cc3)ccc12` TRUE

Check if inhibition >= 50% (inclusive). Item: `C[C@@H](Nc1c(C(N)=O)nnc2cc(-c3ccc(S(C)(=O)=O)cc3)ccc12)C1CC1` FALSE

###

Kindly supply the reported inhibition values for the records listed here.
Tgt: Cyclin-dependent kinase 1/cyclin B1 (Homo sapiens) (UniProt P06493+P14635)
Sequence (P06493 whole entry, looked up): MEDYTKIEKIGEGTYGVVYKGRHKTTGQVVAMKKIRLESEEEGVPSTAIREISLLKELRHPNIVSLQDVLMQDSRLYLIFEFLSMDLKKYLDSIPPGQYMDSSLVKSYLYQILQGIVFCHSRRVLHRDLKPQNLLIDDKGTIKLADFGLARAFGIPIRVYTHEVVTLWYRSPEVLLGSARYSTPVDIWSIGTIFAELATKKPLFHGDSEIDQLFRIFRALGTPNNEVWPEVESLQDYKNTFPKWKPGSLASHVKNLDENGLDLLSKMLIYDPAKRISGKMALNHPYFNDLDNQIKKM
Sequence (P14635 whole entry, looked up): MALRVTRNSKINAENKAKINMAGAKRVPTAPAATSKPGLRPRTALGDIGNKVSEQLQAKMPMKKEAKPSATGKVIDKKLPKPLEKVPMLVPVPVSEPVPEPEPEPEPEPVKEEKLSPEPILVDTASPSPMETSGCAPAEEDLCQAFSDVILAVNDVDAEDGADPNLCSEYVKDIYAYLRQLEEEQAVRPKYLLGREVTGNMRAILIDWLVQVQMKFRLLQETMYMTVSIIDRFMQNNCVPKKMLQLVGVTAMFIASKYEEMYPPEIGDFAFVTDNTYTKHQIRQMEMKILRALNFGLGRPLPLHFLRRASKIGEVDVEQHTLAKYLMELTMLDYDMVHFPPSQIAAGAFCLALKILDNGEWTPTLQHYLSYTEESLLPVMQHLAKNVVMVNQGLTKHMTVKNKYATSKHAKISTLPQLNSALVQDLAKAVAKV
Test Summary: Inhibition of CDK1/cyclin B (unknown origin) at 10 uM relative to control
Type: protein-complex assay
Give bare numbers, in %.

• CC(C)Nc1c(C(N)=O)cnc2cc(-c3ccc(S(C)(=O)=O)cc3)ccc12 = 1

Would you mind listing inhibition for each of the following compounds?
1. CC(C)Nc1c(C(N)=O)nnc2cc(-c3ccncc3)ccc12
2. CC(C)Nc1c(C(N)=O)nnc2ccc(-c3ccncc3)cc12
3. C[C@@H](Nc1c(C(N)=O)nnc2cc(-c3ccc(S(C)(=O)=O)cc3)ccc12)C1CC1
4. CC(C)Nc1c(C(N)=O)nnc2cc(N3CCOCC3)ccc12

[40, 102, -3, 3]

###

Tgt: Serine/threonine-protein kinase Chk1 (Homo sapiens) (UniProt O14757)
Sequence (O14757 whole entry): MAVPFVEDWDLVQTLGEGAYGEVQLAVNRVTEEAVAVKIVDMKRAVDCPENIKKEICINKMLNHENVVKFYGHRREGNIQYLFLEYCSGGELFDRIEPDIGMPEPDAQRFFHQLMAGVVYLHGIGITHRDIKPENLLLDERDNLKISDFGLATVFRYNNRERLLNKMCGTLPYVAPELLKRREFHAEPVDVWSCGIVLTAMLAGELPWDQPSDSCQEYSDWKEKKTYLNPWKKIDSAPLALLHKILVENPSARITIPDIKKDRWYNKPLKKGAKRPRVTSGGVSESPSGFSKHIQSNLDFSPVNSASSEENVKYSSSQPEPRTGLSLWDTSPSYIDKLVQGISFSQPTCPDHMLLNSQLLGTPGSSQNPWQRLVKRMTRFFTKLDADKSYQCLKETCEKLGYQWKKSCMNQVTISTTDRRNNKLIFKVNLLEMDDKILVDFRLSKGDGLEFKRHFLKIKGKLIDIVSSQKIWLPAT
Test Summary: Inhibition of CHK1 (unknown origin) at 10 uM relative to control
Parameter: inhibition (%)
Numbers only, in %.

Record excerpt, results attached:
• CC(C)Nc1c(C(N)=O)nnc2cc(N3CCOCC3)ccc12 = 93
• CS(=O)(=O)c1ccc(-c2ccc3c(NC4CCC4)c(C(N)=O)nnc3c2)cc1 = 82
• CC(C)Nc1c(C(N)=O)cnc2cc(-c3ccc(S(C)(=O)=O)cc3)ccc12 = 72
• CC(C)Nc1c(C(N)=O)nnc2ccc(-c3ccncc3)cc12 = 66

Pending compound:
For the compound shown here, `CC(C)Nc1c(C(N)=O)nnc2ccc(-c3cn[nH]c3)cc12` , give the reported inhibition. 78

###

Tgt: Leucine-rich repeat serine/threonine-protein kinase 2 (Homo sapiens, UniProt Q5S007, G2019S)
Sequence (Q5S007 whole entry G2019S, the tested form may be a part): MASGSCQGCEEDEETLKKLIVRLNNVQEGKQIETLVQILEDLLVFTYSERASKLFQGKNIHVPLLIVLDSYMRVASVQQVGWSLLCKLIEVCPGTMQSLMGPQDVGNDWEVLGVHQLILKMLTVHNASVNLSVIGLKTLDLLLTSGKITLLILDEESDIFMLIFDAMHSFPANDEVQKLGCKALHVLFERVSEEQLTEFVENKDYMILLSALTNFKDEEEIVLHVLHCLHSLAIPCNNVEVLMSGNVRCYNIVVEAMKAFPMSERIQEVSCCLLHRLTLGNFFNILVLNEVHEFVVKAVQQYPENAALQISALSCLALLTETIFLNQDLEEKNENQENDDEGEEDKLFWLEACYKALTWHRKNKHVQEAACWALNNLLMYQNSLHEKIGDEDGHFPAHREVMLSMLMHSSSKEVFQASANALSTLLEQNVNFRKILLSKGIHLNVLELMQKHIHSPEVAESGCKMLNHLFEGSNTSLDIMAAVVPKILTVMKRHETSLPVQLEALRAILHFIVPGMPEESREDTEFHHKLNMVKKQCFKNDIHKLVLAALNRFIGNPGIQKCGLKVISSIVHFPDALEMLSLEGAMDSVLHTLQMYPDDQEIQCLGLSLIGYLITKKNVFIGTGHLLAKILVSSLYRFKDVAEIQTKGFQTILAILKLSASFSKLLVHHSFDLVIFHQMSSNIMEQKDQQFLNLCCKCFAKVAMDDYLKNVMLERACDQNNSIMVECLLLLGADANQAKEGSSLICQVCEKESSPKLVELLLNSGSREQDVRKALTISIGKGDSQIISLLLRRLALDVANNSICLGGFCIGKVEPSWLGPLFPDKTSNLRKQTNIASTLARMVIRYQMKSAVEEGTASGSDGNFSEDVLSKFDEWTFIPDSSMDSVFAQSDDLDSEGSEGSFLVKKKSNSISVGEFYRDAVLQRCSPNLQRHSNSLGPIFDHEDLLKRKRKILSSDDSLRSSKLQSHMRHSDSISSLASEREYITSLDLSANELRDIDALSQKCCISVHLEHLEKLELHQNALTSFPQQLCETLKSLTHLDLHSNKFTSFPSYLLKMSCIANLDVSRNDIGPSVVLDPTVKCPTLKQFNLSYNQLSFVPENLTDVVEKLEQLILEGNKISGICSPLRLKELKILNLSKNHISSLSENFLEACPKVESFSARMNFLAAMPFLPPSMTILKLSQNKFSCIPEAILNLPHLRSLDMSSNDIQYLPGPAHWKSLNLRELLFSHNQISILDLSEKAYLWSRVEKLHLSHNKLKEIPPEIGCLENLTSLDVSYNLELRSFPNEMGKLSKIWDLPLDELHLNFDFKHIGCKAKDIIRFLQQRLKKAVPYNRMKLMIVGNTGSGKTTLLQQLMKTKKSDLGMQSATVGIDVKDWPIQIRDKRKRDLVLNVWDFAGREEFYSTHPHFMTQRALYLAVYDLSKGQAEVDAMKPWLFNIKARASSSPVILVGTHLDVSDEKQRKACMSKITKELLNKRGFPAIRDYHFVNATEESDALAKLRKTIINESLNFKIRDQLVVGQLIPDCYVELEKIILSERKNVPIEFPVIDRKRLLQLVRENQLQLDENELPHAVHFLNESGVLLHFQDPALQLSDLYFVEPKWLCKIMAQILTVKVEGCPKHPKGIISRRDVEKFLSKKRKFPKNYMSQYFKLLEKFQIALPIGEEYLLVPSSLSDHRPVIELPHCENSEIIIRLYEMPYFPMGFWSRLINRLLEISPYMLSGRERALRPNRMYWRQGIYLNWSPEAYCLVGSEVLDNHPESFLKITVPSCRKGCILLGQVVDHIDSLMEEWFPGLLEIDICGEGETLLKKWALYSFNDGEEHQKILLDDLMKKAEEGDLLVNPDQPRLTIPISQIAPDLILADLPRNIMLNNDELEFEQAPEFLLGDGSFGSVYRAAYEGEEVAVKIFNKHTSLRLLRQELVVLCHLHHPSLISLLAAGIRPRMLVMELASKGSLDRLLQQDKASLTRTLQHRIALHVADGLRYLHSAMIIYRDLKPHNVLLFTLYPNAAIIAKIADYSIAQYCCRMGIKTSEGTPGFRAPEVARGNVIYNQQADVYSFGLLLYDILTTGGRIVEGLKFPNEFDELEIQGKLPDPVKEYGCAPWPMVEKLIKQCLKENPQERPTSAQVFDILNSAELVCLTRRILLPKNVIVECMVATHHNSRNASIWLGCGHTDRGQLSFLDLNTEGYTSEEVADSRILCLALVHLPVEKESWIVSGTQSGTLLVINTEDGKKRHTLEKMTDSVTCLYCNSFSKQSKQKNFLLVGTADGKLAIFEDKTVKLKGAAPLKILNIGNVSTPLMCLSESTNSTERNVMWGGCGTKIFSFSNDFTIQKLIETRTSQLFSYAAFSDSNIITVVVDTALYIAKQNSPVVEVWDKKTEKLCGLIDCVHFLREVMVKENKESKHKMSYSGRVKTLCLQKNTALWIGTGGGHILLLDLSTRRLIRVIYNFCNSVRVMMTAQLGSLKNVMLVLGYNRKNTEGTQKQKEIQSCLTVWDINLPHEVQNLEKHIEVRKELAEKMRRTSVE
Test Summary: Inhibition of GST-tagged LRRK2 G2019S mutant (970 to 2527 amino acid residues) (unknown origin) assessed as inhibition of biotinylated-LRRKtide phosphorylation by HTRF assay in presence of ATP
Consider the following compounds; for each one, report its log10 IC50.
// units: nM (pre-log); metric: IC50; scale: log10

See these solved cases before continuing.
• CS(=O)(=O)c1ccc(-c2ccc3c(NC4CCOCC4)c(C(N)=O)nnc3c2)cc1 = 1.51
• C[C@@H](Nc1c(C(N)=O)nnc2cc(-c3ccc(S(C)(=O)=O)cc3)ccc12)C1CC1 = 0.85
• CS(=O)(=O)c1ccc(-c2ccc3c(NC4CCOC4)c(C(N)=O)nnc3c2)cc1 (racemic) = 1.72

Count: 8. Required value per item: log10 IC50.
1. CC(C)Nc1c(C(N)=O)nnc2cc(N3CCOCC3)ccc12
2. CC(C)Nc1c(C(N)=O)nnc2ccc(-c3cnn(C)c3)cc12
3. CS(=O)(=O)c1ccc(-c2ccc3c(NC4CC4)c(C(N)=O)nnc3c2)cc1
4. CC[C@@H](C)Nc1c(C(N)=O)nnc2cc(-c3ccc(S(C)(=O)=O)cc3)ccc12
5. NC(=O)c1nnc2cc(-c3ccncc3)ccc2c1NCCCO
6. CNC(=O)c1nnc2cc(-c3ccc(S(C)(=O)=O)cc3)ccc2c1NC(C)C
7. C[C@@H](Nc1c(C(N)=O)nnc2cc(-c3ccncc3)ccc12)C1CC1
8. CC(C)Nc1c(C(N)=O)nnc2ccc(-c3cn[nH]c3)cc12

[1.08, 2.63, 1.72, 0.60, 2.21, 2.62, 0.78, 0.70]

I need log10 IC50 for every entry listed below, if you could help.
1. CC(C)Nc1c(C(N)=O)nnc2cc(N3CCN(C)CC3)ccc12
2. CC(C)Nc1c(C(N)=O)nnc2ccc(-c3ccncc3)cc12

1. 1.77
2. 1.82
